Measured values drawn from patent US4083947A for this set.

- TEST DETAILS: Tissue distribution of selenium-75-labelled sterols in rats, sixth day post-injection
- Format: in vivo, rats of the C.F.Y. strain
- MEASUREMENT SETUP: female rats, tail vein, dose: 1, 7: 40 μCi, 6: 50 μCi, 3: 30 μCi, 4: 1.5 μCi, 5: 10 μCi, 8: 6.3 μCi
Give % dose kg./g. in Ovaries for every item shown.
Give a bare numeral; the unit % dose kg./g. is implied.

The recorded % dose kg./g. in Ovaries for C[75Se]C[C@@H]1C[C@@H]2[C@H](CC[C@]3(C)[C@@H]([C@H](C)CCCC(C)C)CC[C@@H]23)C2=C1C[C@@H](O)CC2 is 2.356

The recorded % dose kg./g. in Ovaries for CC(C)CCC[C@@H](C)[C@H]1CC[C@H]2[C@@H]3C[C@@H](C[75Se]Cc4ccccc4)C4=C(CC[C@H](O)C4)[C@H]3CC[C@]12C is 2.425

The recorded % dose kg./g. in Ovaries for C[75Se]C[C@@H]1C[C@@H]2[C@H](CC[C@]3(C)[C@@H]([C@H](C)CCCC(C)C)CC[C@@H]23)C2=C1C[C@@H](OC(C)=O)CC2 is 3.232

* * *

- TEST DETAILS: Tissue distribution of selenium-75-labelled sterols in rats, sixth day post-injection
- Type: in vivo, rats of the C.F.Y. strain
- MEASUREMENT SETUP: rats, tail vein, dose: 1, 7: 40 μCi, 6: 50 μCi, 3: 30 μCi, 4: 1.5 μCi, 5: 10 μCi, 8: 6.3 μCi
The threshold is inclusive: Concentration Ratio; Adrenals: Kidneys of exactly 100 counts as met; values below receive not met.

Determine whether this compound has Concentration Ratio; Adrenals: Kidneys no lower than 100: C[75Se]C[C@@H]1C[C@@H]2[C@H](CC[C@]3(C)[C@@H]([C@H](C)CCCC(C)C)CC[C@@H]23)C2=C1C[C@@H](O)CC2 [Example 1] not met

Determine whether this compound has Concentration Ratio; Adrenals: Kidneys no lower than 100: CC(C)CCC[C@@H](C)[C@H]1CC[C@H]2[C@@H]3C[C@@H](C[75Se]C4CCCCC4)C4=C(CC[C@H](O)C4)[C@H]3CC[C@]12C [Example 4] not met

Determine whether this compound has Concentration Ratio; Adrenals: Kidneys no lower than 100: C[75Se]C[C@@H]1C[C@@H]2[C@H](CC[C@]3(C)[C@@H]([C@H](C)CCCC(C)C)CC[C@@H]23)C2=C1C[C@@H](OC(C)=O)CC2 [Example 6] met

Determine whether this compound has Concentration Ratio; Adrenals: Kidneys no lower than 100: CC(C)CCC[C@@H](C)[C@H]1CC[C@H]2[C@@H]3C[C@@H](C[75Se]c4ccccc4)C4=C(CC[C@H](O)C4)[C@H]3CC[C@]12C [Example 8] met

Determine whether this compound has Concentration Ratio; Adrenals: Kidneys no lower than 100: CC(C)CCC[C@@H](C)[C@H]1CC[C@H]2[C@@H]3C[C@@H](C[75Se]Cc4ccccc4)C4=C(CC[C@H](O)C4)[C@H]3CC[C@]12C [Example 5] not met

Determine whether this compound has Concentration Ratio; Adrenals: Kidneys no lower than 100: CC(C)CCC[C@@H](C)[C@H]1CC[C@H]2[C@@H]3C[C@@H](C[75Se](C)=O)C4=C(CC[C@H](O)C4)[C@H]3CC[C@]12C (stereo partly shown) [Example 7] not met

Determine whether this compound has Concentration Ratio; Adrenals: Kidneys no lower than 100: CCCC[75Se]C[C@@H]1C[C@@H]2[C@H](CC[C@]3(C)[C@@H]([C@H](C)CCCC(C)C)CC[C@@H]23)C2=C1C[C@@H](O)CC2 [Example 3] met
